system under test: Short transient receptor potential channel 4 (Mus musculus) (UniProt Q9QUQ5)
Sequence (Q9QUQ5 whole entry, looked up): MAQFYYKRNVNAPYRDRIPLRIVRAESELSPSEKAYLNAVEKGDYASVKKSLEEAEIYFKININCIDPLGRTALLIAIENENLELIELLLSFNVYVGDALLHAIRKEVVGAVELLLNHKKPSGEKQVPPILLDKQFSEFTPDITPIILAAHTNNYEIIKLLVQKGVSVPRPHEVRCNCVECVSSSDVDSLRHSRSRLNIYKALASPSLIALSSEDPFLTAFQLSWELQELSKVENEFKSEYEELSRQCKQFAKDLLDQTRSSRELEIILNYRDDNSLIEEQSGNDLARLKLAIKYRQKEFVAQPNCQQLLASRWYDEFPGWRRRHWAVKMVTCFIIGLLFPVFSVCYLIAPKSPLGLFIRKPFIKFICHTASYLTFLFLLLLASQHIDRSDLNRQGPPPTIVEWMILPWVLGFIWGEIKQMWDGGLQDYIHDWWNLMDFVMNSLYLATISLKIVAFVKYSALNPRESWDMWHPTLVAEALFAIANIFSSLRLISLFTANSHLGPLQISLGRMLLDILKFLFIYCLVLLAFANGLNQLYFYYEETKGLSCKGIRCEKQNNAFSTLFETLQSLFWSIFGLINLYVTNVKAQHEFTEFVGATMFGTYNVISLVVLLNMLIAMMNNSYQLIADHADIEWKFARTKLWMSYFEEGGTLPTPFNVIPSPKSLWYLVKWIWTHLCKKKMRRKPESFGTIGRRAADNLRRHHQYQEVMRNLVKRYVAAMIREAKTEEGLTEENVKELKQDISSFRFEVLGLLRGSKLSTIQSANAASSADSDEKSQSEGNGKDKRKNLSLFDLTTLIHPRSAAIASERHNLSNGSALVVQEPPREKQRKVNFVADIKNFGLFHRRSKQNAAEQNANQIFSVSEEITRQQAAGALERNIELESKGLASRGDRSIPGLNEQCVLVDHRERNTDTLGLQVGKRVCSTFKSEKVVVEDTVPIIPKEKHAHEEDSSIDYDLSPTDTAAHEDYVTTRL
assay name: calcium entry via TRPC4 opening agents – cell-based, HEK293 TRPC4/mu-opioid, Fluo-4 calcium, dose response (AID 434937);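 further: HEK293 cells coexpressing mouse TRPC4 with mu-opioid receptor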
test settings: HEK293 TRPC4 cells, Fluo-4 calcium fluorescence ratio; series mostly up to 20 µM
Potency and affinity values are given separately. Activity calls are given as the source filed them.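 How the source made its calls: active means primary screen activator hit with a dose response curve and TRPC4 channel activation at any tested dose; inactive means no activation, no dose response, or not a primary hit.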
measured endpoint: outcome

# annotated cases, reported outcome shown
# compound, observed measurement
measured = [
    ("COc1ccc(CCn2c(=S)[nH]c3cc(C(=O)N4CCOCC4)ccc3c2=O)cc1OC", "inactive"),
    ("CC(=O)N1CC(c2ccccc2)C(c2ccc(Cl)cc2)=N1 (centres undefined)", "inactive"),
    ("COCCn1c(SCC(=O)Nc2ccc(S(=O)(=O)N3CCOCC3)cc2)nc2ccccc21", "inactive"),
    ("CCC(O)(c1ccc(OC)cc1)C(CN1CCOCC1)c1ccccc1 (centres undefined)", "inactive"),
    ("Nc1cc(N2CCCCC2)c([N+](=O)[O-])cc1Cl", "inactive"),
]

Now look at this entry.
Request: What value of measured outcome is listed for "Cc1cc(C)c2c(=O)n(CC(=O)Nc3cccc(Cl)c3C)sc2n1" ?
Result: inactive

----------
system under test: Short transient receptor potential channel 4 (Mus musculus) (UniProt Q9QUQ5)
assay name: blockers of DAMGO-evoked TRPC4 calcium flux – cell-based, second round, Fluo4, HEK293 TRPC4beta/mu-opioid, 1 µM, confirmation (AID 2637)
test settings: at 1 µM
Active and inactive are the calls of the source.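 How the source made its calls: active means calcium signal ratio cut to more than 3 SD under the fully stimulated control mean yet still positive, in both repeats and the primary screen; inactive means the rest.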
Bench note: report the call from YES = active, NO = inactive

Some solved entries appear below for comparison.
# compound, label value
measured = [
    ("CC1CCc2c(C(=O)N3CCN(S(=O)(=O)c4cccs4)CC3)csc2C1 (stereo not given)", "NO"),
    ("COC(=O)NCC(c1ccc2c(c1)OCO2)N1CCN(c2ccccc2)CC1 (stereo not given)", "NO"),
    ("O=C(c1cccc([N+](=O)[O-])c1)N1CCCC(C(=O)N2CCCCCC2)C1 (stereo not given)", "NO"),
    ("CCC1CCCCN1S(=O)(=O)c1ccc(C(=O)N(CCCN(C)C)c2nc3cc4c(cc3s2)OCO4)cc1 (stereo not given)", "NO"),
    ("COCCNC(=O)/C(C#N)=C/c1cc(C(C)C)c(OC)cc1C", "NO"),
]

Request: Test call for this compound, please: "COC(=O)C1CCN(Cc2cn(-c3ccccc3)nc2-c2ccc3c(c2)OCO3)CC1"
Result: NO

Request: Same read-out for "CCN1C(=O)/C(=C\N2CCCc3ccccc32)SC1=S" ?
Result: NO

Request: Same read-out for Cc1ccccc1C(=O)NC1CC2CCC(C1)N2Cc1ccccc1 (stereo not given) ?
Result: YES

Request: Same read-out for COc1cccc(C(=O)NC2CCCN(C3Cc4ccccc4C3)C2)c1OC (stereo not given) ?
Result: NO

Request: Same read-out for "Cc1onc(-c2c(F)cccc2Cl)c1C(=O)N(C)CC(=O)Nc1cccc(F)c1" ?
Result: NO

----------
system under test: Short transient receptor potential channel 4 (Mus musculus)
assay name: calcium flux activators in TRPC4/5HT1a cells, counter-screen for TRPC4 activator project, cell-based, second counter screen, HEK293 TRPC4/5HT1a, Fluo-4 (AID 434977)
test settings: Fluo-4 calcium flux, at 10 µM
Activity calls are given as the source filed them.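 The calls were made as follows: active = calcium signal rise above buffer-control mean plus 5 SD in both duplicates, and also a hit in the primary screen; inactive = the rest.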
Bench note: report the call from active, inactive

Some solved entries appear below for comparison.
# compound, label value
data = [
    ("O=c1c(Cc2ccc(F)cc2)c(O)ccn1CCc1cnc[nH]1", "active"),
    ("Cc1sc(NC(=O)C2CCCCC2C(=O)O)c(C(N)=O)c1-c1ccc(C(C)(C)C)cc1 (stereo unspecified)", "inactive"),
    ("CC(C)C(=O)N1CCN(c2ccccc2NC(=O)c2ccco2)CC1", "inactive"),
    ("CC(=O)c1c(C)nn(CC(=O)NC2CCCN(Cc3ccc(CC(C)C)cc3)C2)c1C (stereo unspecified)", "active"),
    ("COc1cc(OC)c(C2N(C)c3ccccc3N2C)cc1OC", "inactive"),
    ("CCCN(CCC)CCCNC(=O)c1cc2c(-c3ccc(OC)c(OC)c3)nn(C)c2s1", "active"),
    ("Cc1ccc(C)c(S(=O)(=O)/N=C2\\C=C(NS(=O)(=O)c3ccccc3)C(=O)c3ccccc32)c1", "inactive"),
    ("CCCn1c(=O)c2sccc2n2c(CCCC(=O)NC3CCN(Cc4ccccc4)CC3)nnc12", "inactive"),
    ("OCCN(CCO)c1ncnc2c1sc1nc(N3CCOCC3)c3c(c12)CCCC3", "inactive"),
    ("O=C(O)c1ccc(NC(=S)NC(=O)c2ccc(-c3ccccc3)cc2)cc1", "inactive"),
]

Continue with the next compound.
Request: Test call for this compound, please: COc1ccccc1/C=C/CN1CCCC(CCC(=O)NCc2ccccc2F)C1 (stereo unspecified)
Result: active

----------
system under test: Short transient receptor potential channel 4 (Mus musculus)
assay name: potentiation of DAMGO-evoked TRPC4 calcium signal – cell-based, HEK293 TRPC4/mu-opioid, Fluo-4 calcium, EC20 DAMGO, dose response (AID 434941);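 further: calcium entry triggered by an EC20 dose of DAMGO at the co-expressed mu-opioid receptor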
test settings: HEK293 TRPC4/mu-opioid cells, Fluo-4 calcium fluorescence; series mostly up to 20 µM
Potency and affinity values are given separately. Active and inactive are the calls of the source.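 How the source made its calls: active means earlier screen potentiator hit that boosts the TRPC4 ion channel at some dose, with a dose response; inactive means no potentiation, no dose response, or not a prior hit.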
measured endpoint: outcome

# annotated cases, reported outcome shown
# compound, system under test, outcome
measured = [
    ("O=C1C=CC(=O)N1CCNc1ncc(C(F)(F)F)cc1Cl", "Short transient receptor potential channel 4 (Mus musculus)", "inactive"),
    ("CC1(C)CC2CC(C)(CN2CC(O)COc2ccccc2)C1 (stereo not drawn)", "Short transient receptor potential channel 4 (Mus musculus)", "inactive"),
    ("CC1(C(=O)OCc2cc(=O)n3cc(Br)ccc3n2)CC1(Cl)Cl (stereo not drawn)", "Short transient receptor potential channel 4 (Mus musculus)", "inactive"),
    ("CCC(=O)NC(C)C(c1cccs1)N1CCN(c2ccccc2)CC1 (stereo not drawn)", "Short transient receptor potential channel 4 (Mus musculus)", "inactive"),
    ("CC1=NN(C(=O)COc2ccc(C)c(C)c2)C(O)(c2ccc(Cl)cc2)C1 (stereo not drawn)", "Short transient receptor potential channel 4 (Mus musculus)", "inactive"),
]

Request: What value of measured outcome is listed for "COc1ccccc1N1CCN(CCCNC(=O)Nc2ccccc2)CC1" ?
Result: inactive

Request: Same read-out for "Cc1cc(N2CCCCC2)nc(NCc2ccccc2)n1" ?
Result: inactive

Request: Same read-out for "Cc1cc([N+](=O)[O-])ccc1NCc1ccco1" ?
Result: inactive

Request: Same read-out for "Cc1nn(-c2ccccc2)c(Cl)c1CN(C(=O)CCl)c1ccc(Cl)cc1" ?
Result: inactive

----------
system under test: Short transient receptor potential channel 4 (Mus musculus) (UniProt Q9QUQ5)
assay name: calcium entry via TRPC4 opening agents – cell-based, HEK293 TRPC4/mu-opioid, Fluo-4 calcium, dose response (AID 434937);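 further: HEK293 cells coexpressing mouse TRPC4 with mu-opioid receptor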
test settings: HEK293 TRPC4 cells, Fluo-4 calcium fluorescence ratio; series mostly up to 20 µM
Entries with a potency or affinity are not part of this list. Active and inactive are the calls of the source.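 How the source made its calls: active means primary screen activator hit with a dose response curve and TRPC4 channel activation at any tested dose; inactive means no activation, no dose response, or not a primary hit.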
measured endpoint: outcome

# annotated cases, reported outcome shown
# compound, outcome
rows = [
    ("O=[N+]([O-])c1ccc(C[n+]2cccc(O)c2)cc1", "inactive"),
    ("N#Cc1c(NC(=O)C2CC(Cl)=CCC2C(=O)O)sc2c1CCCCC2 (stereo unspecified)", "inactive"),
    ("Cc1cc2cc(C#N)c(NCCNC(=S)NCCCN3CCOCC3)nc2cc1C", "inactive"),
    ("CCC(=O)c1ccc(N2CCN(C(=O)c3ccccc3Br)CC2)c(F)c1", "inactive"),
]

Request: What value of measured outcome is listed for "CCc1nc2ccccc2n1Cc1ccc(F)cc1" ?
Result: inactive

Request: Same read-out for "c1ccc(Nc2c3c(nc4ccccc24)CCC3)cc1" ?
Result: inactive

Request: Same read-out for "Cc1cc(NC(=O)CSCC(=O)Nc2ccc(Cl)c(C(F)(F)F)c2)no1" ?
Result: inactive

Request: Same read-out for "CCOc1cc(CNC2CCCC2)cc(Cl)c1OCc1ccccc1" ?
Result: inactive

Request: Same read-out for "CCOc1ccccc1-n1c(SCC(=O)Nc2nccs2)nnc1-c1ccoc1C" ?
Result: inactive

Request: Same read-out for "O=C(O)c1ccc(NC(=O)c2cn(-c3ccccc3)nc2-c2ccc(Br)cc2)cc1" ?
Result: inactive

Request: Same read-out for "Cc1cc(OCC(=O)NNC(=S)NC(=O)c2ccc(Br)o2)ccc1Cl" ?
Result: inactive

----------
assay name: serotonin-gated TRPC4 signal block – cell-based, second counter screen, HEK293 TRPC4/5HT1a, Fluo-4, counter-screen for TRPC4 inhibitor project, confirmation (AID 434978)
test settings: Fluo-4 calcium flux, at 10 µM, serotonin added to trigger calcium flux
Active and inactive are the calls of the source.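 Rule for the calls: active = primary screen active whose calcium signal fell more than 3 SD beyond the full-serotonin control mean in both duplicate plates; inactive = the rest.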
Bench note: report the call from active, inactive

# compound, label value
rows = [
    ("Cc1ccc(CN(C(=O)c2cc(=O)c3cc(Cl)c(C)cc3o2)C2CCS(=O)(=O)C2)cc1 (stereo unspecified)", "inactive"),
    ("Cc1nn(C(=O)CNS(=O)(=O)c2ccccc2)c(C)c1Sc1ccc(Cl)cc1", "active"),
    ("NS(=O)(=O)c1ccc(Nc2nc(-c3ccc(O)cc3O)cs2)cc1", "inactive"),
    ("CCn1cc(CNCc2cn(-c3ccccc3C)nc2-c2ccc(OC)c(F)c2)cn1", "inactive"),
    ("Cc1cccc(C)c1-n1cccc1/C=C1\\SC(=S)N(c2cccc(C(=O)O)c2)C1=O", "active"),
    ("Cc1nnc(Sc2cc(NCCCO)c([N+](=O)[O-])c3nonc23)s1", "inactive"),
    ("O=S(=O)(NCC1NCCc2ccccc21)c1ccccc1 (stereo unspecified)", "inactive"),
    ("CCOc1ccc(CN(C)CC(=O)NNC(=O)c2ccc(Cl)cc2)cc1OC", "inactive"),
]

Request: Test call for this compound, please: "CCOC(=O)c1c(NC(=O)/C=C/C(=O)O)sc(C)c1-c1ccc(C(C)(C)C)cc1"
Result: active

Request: Same read-out for Cc1ccccc1Cn1c(=N)n(CC(O)c2ccco2)c2ccccc21 (stereo unspecified) ?
Result: active

Request: Same read-out for "CCOC(=O)c1c(NC(=O)COC(=O)CCOc2ccc(OCC)cc2)sc(C(=O)N(C)C)c1C" ?
Result: inactive

Request: Same read-out for "Cc1oc(-c2ccoc2)nc1CN(Cc1ccccc1)CC1CC1" ?
Result: inactive

Request: Same read-out for "O=C(COC(=O)c1ccccc1C(=O)N1CCN(c2ccccc2)CC1)Nc1ccc(F)cc1" ?
Result: inactive

Request: Same read-out for "COC(=O)CSc1nn(-c2ccc(F)cc2)c(=S)s1" ?
Result: active

Request: Same read-out for "CC1CCN(CCCNS(=O)(=O)c2cc(Br)cc3c2N(C(=O)C2CC2)CC3)CC1" ?
Result: inactive

Request: Same read-out for CC(C)(C)CC(C)(C)NCC(O)COc1ccc2c(c1)CCC2 (stereo unspecified) ?
Result: inactive

Request: Same read-out for CC1CC(C)CN(CCCNC(=O)c2ccc3c(c2)N(Cc2ccccc2)C(=O)c2ccccc2S3=O)C1 (stereo unspecified) ?
Result: inactive

Request: Same read-out for CC(=O)NC(CC(=O)NCC(c1ccco1)N(C)C)c1ccccc1 (stereo unspecified) ?
Result: inactive

Request: Same read-out for "CCN1CCN(c2nc(N)c([N+](=O)[O-])c(Nc3ccc(C)c(C)c3)n2)CC1" ?
Result: inactive

Request: Same read-out for "c1ccc(-c2nc(NCc3cccnc3)c3ccccc3n2)cc1" ?
Result: active

Request: Same read-out for "CC(=O)Nc1ccc(S(=O)(=O)NC2=C(N3CCN(Cc4ccccc4)CC3)C(=O)c3ccccc3C2=O)cc1" ?
Result: inactive
